# assay-protocol: Two-compartment PK model fitted to plasma concentration of Drug-A (Experiment-A)
# applied-conditions: male, athymic nude, mouse, plasma, iv, 20 mg/kg, Vd (apparent volume of distribution of the central compartment), mouse 55; 20 mg/kg iv-bolus q4dx3
reported-metric: Vd (L/kg)
Report the figure in L/kg without appending any unit label.

### Prompt Answer with reported Vd of `CC(=O)O[C@H]1C(=O)[C@@]2(C)[C@H]([C@H](OC(=O)c3ccccc3)[C@]3(O)C[C@H](OC(=O)[C@H](O)[C@@H](NC(=O)c4ccccc4)c4ccccc4)C(C)=C1C3(C)C)[C@]1(OC(C)=O)CO[C@@H]1C[C@@H]2O`
### Response 0.719
